All values here come from ChEMBL document CHEMBL4043261.

assay.notes: Dissociation constant, pka of the compound by potentiometric titration method
Format: physicochemical
assay.metric: pKa

Cl.O=c1c2cc(OCCCN3CCCCC3)ccc2nc2n1CCc1c-2[nH]c2ccccc12 9.36
CCN(CC)CCCOc1ccc2nc3n(c(=O)c2c1)CCc1c-3[nH]c2ccccc12.Cl 9.29
Cl.O=c1c2cc(O)ccc2nc2n1CCc1c-2n(CCCN2CCCCC2)c2ccccc12 8.8
CCN(CC)CCCn1c2c(c3ccccc31)CCn1c-2nc2ccc(O)cc2c1=O.Cl 8.94

---

assay.notes: Intrinsic solubility of the compound at pH 2 by turbidimetric titration method
Format: physicochemical
setup.conditions: buffer, read-out: Intrinsic_solubility
assay.metric: solubility (µM)

CCN(CC)CCCn1c2c(c3ccccc31)CCn1c-2nc2ccc(O)cc2c1=O.Cl 53.2
Cl.O=c1c2cc(O)ccc2nc2n1CCc1c-2n(CCCN2CCCCC2)c2ccccc12 15.5

P = Cl.O=c1c2cc(OCCCN3CCCCC3)ccc2nc2n1CCc1c-2[nH]c2ccccc12
Q = CCN(CC)CCCOc1ccc2nc3n(c(=O)c2c1)CCc1c-3[nH]c2ccccc12.Cl
Hi team, can someone confirm which has the larger solubility: P or Q ? Thanks. Let me know the label of the one you choose. Q
